Listing of recorded Helicity (%) by entry.
assay: Circular dichroism (CD) α-helicity; type: physicochemical; conditions: Table 1; CD of free peptide, 25 °C, 1 mM Hepes pH 7.4, 5% methanol
Answer with a number only, understood to be in %.

CHEMICAL STRING	Helicity (%)
CC(=O)N[C@@H](CC(C)C)C(=O)N[C@H](C(=O)N[C@@H](Cc1ccccc1)C(=O)N[C@]1(C)CCCCCCC=CCCC[C@@](C)(C(=O)N[C@@H](CO)C(=O)N[C@@H](C)C(=O)N[C@H](C)C(N)=O)NC(=O)[C@H](CC2CCC2)NC(=O)[C@H](CC(C)C)NC(=O)[C@H](CCC(N)=O)NC(=O)[C@H](Cc2c[nH]c3ccccc23)NC(=O)[C@H](Cc2ccc(O)cc2)NC(=O)[C@H](CCC(=O)O)NC1=O)[C@@H](C)O	34.6

Read the next record carefully.
Provide one value: measured Helicity (%) of CC(=O)N[C@@H](CC(C)C)C(=O)N[C@H](C(=O)N[C@@H](Cc1ccccc1)C(=O)N[C@]1(C)CCCCCCC=CCCC[C@@](C)(C(=O)N[C@@H](CO)C(=O)N[C@@H](C)C(=O)N[C@@H](C)C(N)=O)NC(=O)[C@H](CC2CCC2)NC(=O)[C@H](CC(C)C)NC(=O)[C@H](CCC(N)=O)NC(=O)[C@@H](Cc2c[nH]c3ccccc23)NC(=O)[C@H](Cc2ccc(O)cc2)NC(=O)[C@H](CCC(=O)O)NC1=O)[C@@H](C)O
41.0
